experimentalTarget: T1, Dimeric Human Ang-2FD conjugated to human IgG1 (human)
T1 construct: also called Human Ang-2FD-hFc; hAng-2FD-hFc
T1 sequence (chain, as listed by the source limits assumed): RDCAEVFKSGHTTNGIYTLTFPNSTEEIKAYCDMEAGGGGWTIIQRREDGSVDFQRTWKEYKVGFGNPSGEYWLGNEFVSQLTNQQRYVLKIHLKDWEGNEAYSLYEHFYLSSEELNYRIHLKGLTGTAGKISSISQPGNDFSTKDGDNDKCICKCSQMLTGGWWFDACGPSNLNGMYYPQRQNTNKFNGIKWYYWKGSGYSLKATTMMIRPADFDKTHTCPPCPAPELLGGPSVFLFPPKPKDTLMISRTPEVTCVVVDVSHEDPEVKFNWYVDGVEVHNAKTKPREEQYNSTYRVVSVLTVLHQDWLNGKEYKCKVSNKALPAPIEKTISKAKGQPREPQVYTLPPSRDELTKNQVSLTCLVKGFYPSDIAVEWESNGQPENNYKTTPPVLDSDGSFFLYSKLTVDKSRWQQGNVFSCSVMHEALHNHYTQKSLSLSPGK
measurementNotes: SPR, captured Ab, RT

{"binder": "H2M750N (antibody, V domains shown) VH: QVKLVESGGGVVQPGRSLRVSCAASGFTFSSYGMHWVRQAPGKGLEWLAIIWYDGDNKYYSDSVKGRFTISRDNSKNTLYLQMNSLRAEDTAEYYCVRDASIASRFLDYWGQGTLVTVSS VL: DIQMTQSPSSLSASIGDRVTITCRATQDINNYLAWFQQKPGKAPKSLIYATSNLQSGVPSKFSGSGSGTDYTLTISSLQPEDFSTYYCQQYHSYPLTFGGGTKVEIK", "Kd, nM": 0.362}
{"binder": "H1H730N (antibody, V domains shown) VH: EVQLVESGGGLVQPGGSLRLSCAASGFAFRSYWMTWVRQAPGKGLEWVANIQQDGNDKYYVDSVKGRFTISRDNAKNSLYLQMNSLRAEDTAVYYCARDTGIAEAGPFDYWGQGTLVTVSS VL: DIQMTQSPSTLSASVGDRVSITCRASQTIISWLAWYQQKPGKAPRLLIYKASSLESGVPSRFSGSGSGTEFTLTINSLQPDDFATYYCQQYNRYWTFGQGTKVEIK", "Kd, nM": 0.234}
